- Test system: Pseudomonas aeruginosa (PA)
- ASSAY_SUMMARY: Broth microdilution anti-bacterial assay (CLSI), Pseudomonas aeruginosa
- Assay type: cell-based, Pseudomonas aeruginosa (ATCC 14213)
- ASSAY_CONDITIONS: PA; ≥99% killing
Where no end group is shown, it is not given here.
Listed next: entries and their corresponding MBC.
Please reply with the bare figure in µM and do not write the unit itself.

What measured MBC goes with GIGKFLKKAKKFGKAFVKILKK-NH2 [Pexiganan, reference compound] ?
6.25

Sample Ac-KKLLKKWVKLSKKALKLAQSL [Ac-E1AM2] — what was its MBC?
25

Could you share which MBC value was measured for KKLLKKWVKLSKKKLKLAQSL-NH2 [A14K] ?
12.5

Return reported MBC; argument: KKLLKKWVKLSKKALKLLQSL-NH2 [A18L]
6.25

Value lookup for MBC; key = KKLLKKLLKLSKKALKLALSL-NH2 [W7LV8LQ19L]
3.125

For KKLLKKWVKLKKKALKLAQSL-NH2 [S11K] , what is its reported MBC?
12.5

Which MBC is listed for KKLLKKWVKLSKKALKLKQSL-NH2 [A18K] ?
25

Reported MBC for KKLLKKWVKLSKKALKLAQKL-NH2 [S20K] : what is it?
25

Consider the substance shown here: KKLLKKWLKLSKKALKLALS-NH2 [V8LQ19L C-1] What is its recorded MBC?
3.125
